Ref: ChEMBL document CHEMBL1122196

Target: Adrenergic receptor alpha (Homo sapiens) (UniProt P35348+P08913+P18825+P25100+P35368+P18089)
Test: Antagonism for Alpha adrenergic receptor determined as blood pressure response to phenylephrine; NA is Not active
Assay type: functional, tissue-based
Design: unit not given here
Settings: Canis lupus familiaris
Would you mind telling me the reported Activity of each entry?
Write the number on its own, no unit after it.

### Prompt Quick check: Activity of NC(=O)c1cc(C(O)CNCCC(O)c2ccccc2)ccc1O (stereo unspecified) ?
### Response 10

### Prompt Quick check: Activity of CC(NCCCc1ccccc1)C(O)c1ccc(O)c(C(N)=O)c1 (stereo unspecified) ?
### Response 10

### Prompt Quick check: Activity of CC(CCCc1ccccc1)NCC(O)c1ccc(O)c(C(N)=O)c1 (stereo unspecified) ?
### Response 35

### Prompt Quick check: Activity of CC(CC(c1ccccc1)c1ccccc1)NCC(O)c1ccc(O)c(C(N)=O)c1 (stereo unspecified) ?
### Response 24

### Prompt Quick check: Activity of CNC(=O)c1cc(C(O)CNC(C)CCc2ccccc2)ccc1O (stereo unspecified) ?
### Response 10

----------
Would you mind telling me the reported Ratio of each entry?
Target: Adrenergic receptor alpha (Homo sapiens) (UniProt P35348+P08913+P18825+P25100+P35368+P18089)
Assay: Ratio between the activities of alpha and beta 1 receptors
Type: functional
Conditions: Canis lupus familiaris

### Prompt Quick check: Ratio of NC(=O)c1cc(C(O)CNCCCc2ccccc2)ccc1O (centres undefined) ?
### Response 36

### Prompt Quick check: Ratio of CC(CN1CCc2ccccc21)NCC(O)c1ccc(O)c(C(N)=O)c1 (centres undefined) ?
### Response 2

### Prompt Quick check: Ratio of CC(CN(C)c1ccccc1)NCC(O)c1ccc(O)c(C(N)=O)c1 (centres undefined) ?
### Response 3

### Prompt Quick check: Ratio of NC(=O)c1cc(C(O)CNCCC(=O)c2ccccc2)ccc1O (centres undefined) ?
### Response 0.5

----------
Molecular target: Adrenergic receptor beta (Homo sapiens) (UniProt P08588+P07550+P13945)
Experiment: Beta adrenergic receptor blocking activity expressed as the ability to antagonize effect of intravenously administered (-)-isoproterenol on heart rate in anesthetized dog
Type: functional, tissue-based
Set-up: unit not given here
Settings: Canis lupus familiaris
measurement_kind: Activity
Write the number on its own, no unit after it.

### Prompt Quick check: Activity of CC(C)(C)NCC(O)c1ccc(O)c(C(=O)NN)c1 (stereo unspecified) ?
### Response 100

### Prompt Quick check: Activity of CC(C)NCC(O)c1ccc(O)c(C(=O)NO)c1 (stereo unspecified) ?
### Response 20

### Prompt Quick check: Activity of CC(C)(C)NCC(O)c1ccc(O)c(C(N)=O)c1 (stereo unspecified) ?
### Response 4

----------
Target: Adrenergic receptor alpha (Homo sapiens) (UniProt P35348+P08913+P18825+P25100+P35368+P18089)
Experiment: Ratio between the activities of alpha and beta 1 receptors
Assay type: protein assay
Details: Canis lupus familiaris
Would you mind telling me the reported Ratio of each entry?
Write the number on its own, no unit after it.

### Prompt Quick check: Ratio of CC(CCc1ccc(Cl)cc1)NCC(O)c1ccc(O)c(C(N)=O)c1 (stereo not given) ?
### Response 26

### Prompt Quick check: Ratio of NC(=O)c1cc(C(O)CNCCC(O)c2ccccc2)ccc1O (stereo not given) ?
### Response 3

### Prompt Quick check: Ratio of CC(CCc1ccccc1F)NCC(O)c1ccc(O)c(C(N)=O)c1 (stereo not given) ?
### Response 24

### Prompt Quick check: Ratio of CC(CCCc1ccccc1)NCC(O)c1ccc(O)c(C(N)=O)c1 (stereo not given) ?
### Response 7

### Prompt Quick check: Ratio of CC(CN(C)c1ccc(F)cc1)NCC(O)c1ccc(O)c(C(N)=O)c1 (stereo not given) ?
### Response 6

### Prompt Quick check: Ratio of CC(CCc1ccc(F)cc1)NCC(O)c1ccc(O)c(C(N)=O)c1 (stereo not given) ?
### Response 18

### Prompt Quick check: Ratio of CC(Cc1ccccc1)NCC(O)c1ccc(O)c(C(N)=O)c1 (stereo not given) ?
### Response 3

### Prompt Quick check: Ratio of COc1ccccc1OCC(C)NCC(O)c1ccc(O)c(C(N)=O)c1 (stereo not given) ?
### Response 5

### Prompt Quick check: Ratio of CC(CC(c1ccccc1)c1ccccc1)NCC(O)c1ccc(O)c(C(N)=O)c1 (stereo not given) ?
### Response 11

### Prompt Quick check: Ratio of CC(COc1ccc(F)cc1)NCC(O)c1ccc(O)c(C(N)=O)c1 (stereo not given) ?
### Response 75

### Prompt Quick check: Ratio of CC(NCCCc1ccccc1)C(O)c1ccc(O)c(C(N)=O)c1 (stereo not given) ?
### Response 2

### Prompt Quick check: Ratio of Cc1ccc(CCC(C)NCC(O)c2ccc(O)c(C(N)=O)c2)cc1 (stereo not given) ?
### Response 8

### Prompt Quick check: Ratio of CC(CCc1cccc(F)c1)NCC(O)c1ccc(O)c(C(N)=O)c1 (stereo not given) ?
### Response 75

### Prompt Quick check: Ratio of CNC(=O)c1cc(C(O)CNC(C)CCc2ccccc2)ccc1O (stereo not given) ?
### Response 2

### Prompt Quick check: Ratio of COc1ccc(CCC(C)NCC(O)c2ccc(O)c(C(N)=O)c2)cc1 (stereo not given) ?
### Response 43

----------
Molecular target: Adrenergic receptor beta (Homo sapiens) (UniProt P08588+P07550+P13945)
Assay: Beta adrenergic receptor blocking activity expressed as the ability to antagonize effect of intravenously administered (-)-isoproterenol on heart rate in anesthetized dog
Format: functional, tissue-based
Set-up: unit not given here
Details: Canis lupus familiaris
Would you mind telling me the reported Activity of each entry?

### Prompt Quick check: Activity of CC(C)NCC(O)c1ccc(O)c(C(=O)NCc2ccccc2)c1 (stereo not drawn) ?
### Response > 50

### Prompt Quick check: Activity of CC(C)NCC(O)c1ccc(O)c(C(=O)NCCO)c1 (stereo not drawn) ?
### Response > 50

### Prompt Quick check: Activity of CNC(=O)c1cc(C(O)CNC(C)C)ccc1O (stereo not drawn) ?
### Response > 50
